system: HIV-1 protease (Human immunodeficiency virus type 1 group M subtype B)
Construct: The protease (or proteinase) enzyme, consisting of only 99 amino acids
measurement notes: In vitro HIV protease inhibitory assay (fluorescently labeled substrate)
Assay type: biochemical
conditions: HIV-1 Dose 10.0 (unit not given); pH 5.5, one hour, room temperature
% Inhibition values for the compounds below.
Give just the number in %; leave the unit off.

Use the examples below as a reference point.
| compound | % Inhibition, % |
| --- | --- |
| N#Cc1ccc(S(=O)(=O)Nc2cccc(C(C3=C(O)C4(CCN(CC5c6ccccc6-c6ccccc65)CC4)OC3=O)C3CC3)c2)cc1 (stereo not shown) | 107 |
| CCC1CCCCC12OC(=O)C(C(c1cccc(NS(=O)(=O)c3ccc(C#N)cc3)c1)C1CC1)=C2O (stereo not shown) [DX-3] | 110.16 |
| N#Cc1ccc(S(=O)(=O)Nc2cccc(C(C3=C(O)C4(CCN(C(=O)OCC5c6ccccc6-c6ccccc65)CC4)OC3=O)C3CC3)c2)cc1 (stereo not shown) | 126.98 |

So what's the measured % Inhibition for this one? CCC1CCCCC12OC(=O)C(C(c1cccc(NS(=O)(=O)c3ccc(C#N)cc3)c1)C1CC1)=C2O (stereo not shown) [DX-2] 115.80

---

Reported % Inhibition by item:
system: HIV-1 protease (Human immunodeficiency virus type 1 group M subtype B)
Construct: The protease (or proteinase) enzyme, consisting of only 99 amino acids
measurement notes: In vitro HIV protease inhibitory assay (fluorescently labeled substrate)
Assay type: biochemical
conditions: HIV-1 Dose 30.0 (unit not given); pH 5.5, one hour, room temperature
# do not omit the unit; it follows the number

| molecule | % Inhibition |
| --- | --- |
| CCCC1(CCC)OC(=O)C(C(c2cccc(NS(=O)(=O)c3cccnn3)c2)C2CC2)=C1O (centres unmarked) | 113.85% |

Returns the measured % Inhibition for the input molecule. Input: CCC1CCCCC12OC(=O)C(C(c1cccc(NS(=O)(=O)c3ccc(C#N)cc3)c1)C1CC1)=C2O (centres unmarked) [DX-2] 113.98%

---

Reported % Inhibition values for the following molecules.
system: HIV-1 protease (Human immunodeficiency virus type 1 group M subtype B, UniProt P04585)
Construct: The protease (or proteinase) enzyme, consisting of only 99 amino acids
measurement notes: In vitro HIV protease inhibitory assay (fluorescently labeled substrate)
Format: biochemical
conditions: HIV-1 Dose 3.3 (unit not given); pH 5.5, one hour, room temperature

Consider the following illustrative entries.
| molecule | system | % Inhibition |
| --- | --- | --- |
| CC(=O)N1CCC2(CC1)OC(=O)C(C(c1cccc(NS(=O)(=O)c3ccc(C#N)cc3)c1)C1CC1)=C2O (stereo not drawn) [CX-1] | HIV-1 protease (Human immunodeficiency virus type 1 group M subtype B, UniProt P04585) | 107.43% |
| CCN1CCC2(CC1)OC(=O)C(C(c1cccc(NS(=O)(=O)c3ccc(C#N)cc3)c1)C1CC1)=C2O (stereo not drawn) [BX-4] | HIV-1 protease (Human immunodeficiency virus type 1 group M subtype B, UniProt P04585) | 71.3% |
| N#Cc1ccc(S(=O)(=O)Nc2cccc(C(C3=C(O)C4(CCN(C(=O)c5ccccc5)CC4)OC3=O)C3CC3)c2)cc1 (stereo not drawn) [CX-2] | HIV-1 protease (Human immunodeficiency virus type 1 group M subtype B, UniProt P04585) | 107.56% |

Param readout = % Inhibition; param system = HIV-1 protease (Human immunodeficiency virus type 1 group M subtype B, UniProt P04585); param query = CCCC1(CCC)OC(=O)C(C(c2cccc(NS(=O)(=O)c3cccnn3)c2)C2CC2)=C1O (stereo not drawn) [DX-1] ; response: value 108.97%

---

system: HIV-1 protease (Human immunodeficiency virus type 1 group M subtype B, UniProt P04585)
Construct: The protease (or proteinase) enzyme, consisting of only 99 amino acids
measurement notes: In vitro HIV protease inhibitory assay (fluorescently labeled substrate)
Format: biochemical
conditions: HIV-1 Dose 30.0 (unit not given); pH 5.5, one hour, room temperature
measured attribute: % Inhibition (%)
Please give a number only; it is taken to be in %.

Use the examples below as a reference point.
| compound | system | % Inhibition (%) |
| --- | --- | --- |
| N#Cc1ccc(S(=O)(=O)Nc2cccc(C(C3=C(O)C4(CCNCC4)OC3=O)C3CC3)c2)cc1 (stereo not drawn) [BX-2] | HIV-1 protease (Human immunodeficiency virus type 1 group M subtype B, UniProt P04585) | 101.26 |
| CCC1CCCCC12OC(=O)C(C(c1cccc(NS(=O)(=O)c3ccc(C#N)cc3)c1)C1CC1)=C2O (stereo not drawn) [DX-3] | HIV-1 protease (Human immunodeficiency virus type 1 group M subtype B, UniProt P04585) | 113.83 |

// next entry
// lookup % Inhibition for CN1CCC2(CC1)OC(=O)C(C(c1cccc(NS(=O)(=O)c3ccc(C#N)cc3)c1)C1CC1)=C2O (stereo not drawn) [BX-5] 98.54

---

system: HIV-1 protease (Human immunodeficiency virus type 1 group M subtype B, UniProt P04585)
Construct: The protease (or proteinase) enzyme, consisting of only 99 amino acids
measurement notes: In vitro HIV protease inhibitory assay (fluorescently labeled substrate)
Assay type: biochemical
conditions: HIV-1 Dose 3.3 (unit not given); pH 5.5, one hour, room temperature
measured attribute: % Inhibition (%)
Give the number; % is assumed, so skip it.

Previously resolved entries follow.
| molecule | % Inhibition (%) |
| --- | --- |
| CCC1CCCCC12OC(=O)C(C(c1cccc(NS(=O)(=O)c3ccc(C#N)cc3)c1)C1CC1)=C2O (centres unmarked) [DX-3] | 117.26 |
| N#Cc1ccc(S(=O)(=O)Nc2cccc(C(C3=C(O)C4(CCN(CC5c6ccccc6-c6ccccc65)CC4)OC3=O)C3CC3)c2)cc1 (centres unmarked) | 108.72 |
| CN1CCC2(CC1)OC(=O)C(C(c1cccc(NS(=O)(=O)c3ccc(C#N)cc3)c1)C1CC1)=C2O (centres unmarked) | 61.58 |
| C=CCC1(CC=C)OC(=O)C(C(c2ccccc2)C2CC2)=C1O (centres unmarked) | 108.42 |
| CCCC1(CCC)OC(=O)C(C(c2cccc(N(C)S(=O)(=O)c3ccc(C#N)cc3)c2)C2CC2)=C1O (centres unmarked) | 103.5 |

Which measured % Inhibition value corresponds to CCC1CCCCC12OC(=O)C(C(c1cccc(NS(=O)(=O)c3ccc(C#N)cc3)c1)C1CC1)=C2O (centres unmarked) [DX-2] ? 115.79

Which value of % Inhibition has been reported for N#Cc1ccc(S(=O)(=O)Nc2cccc(C(C3=C(O)C4(CCNCC4)OC3=O)C3CC3)c2)cc1 (centres unmarked) in the records? 90.58

For N#Cc1ccc(S(=O)(=O)Nc2cccc(C(C3=C(O)C4(CCN(C(=O)OCC5c6ccccc6-c6ccccc65)CC4)OC3=O)C3CC3)c2)cc1 (centres unmarked) , what is its reported % Inhibition? 113.09

Recorded values, source patent US6060600A.
